# credit: patent US11866430B2

- Target desc: human DGKζ (Homo sapiens (Human), UniProt Q13574)
- Sequence (Q13574 other isoform, or with tags, fused parts or gaps): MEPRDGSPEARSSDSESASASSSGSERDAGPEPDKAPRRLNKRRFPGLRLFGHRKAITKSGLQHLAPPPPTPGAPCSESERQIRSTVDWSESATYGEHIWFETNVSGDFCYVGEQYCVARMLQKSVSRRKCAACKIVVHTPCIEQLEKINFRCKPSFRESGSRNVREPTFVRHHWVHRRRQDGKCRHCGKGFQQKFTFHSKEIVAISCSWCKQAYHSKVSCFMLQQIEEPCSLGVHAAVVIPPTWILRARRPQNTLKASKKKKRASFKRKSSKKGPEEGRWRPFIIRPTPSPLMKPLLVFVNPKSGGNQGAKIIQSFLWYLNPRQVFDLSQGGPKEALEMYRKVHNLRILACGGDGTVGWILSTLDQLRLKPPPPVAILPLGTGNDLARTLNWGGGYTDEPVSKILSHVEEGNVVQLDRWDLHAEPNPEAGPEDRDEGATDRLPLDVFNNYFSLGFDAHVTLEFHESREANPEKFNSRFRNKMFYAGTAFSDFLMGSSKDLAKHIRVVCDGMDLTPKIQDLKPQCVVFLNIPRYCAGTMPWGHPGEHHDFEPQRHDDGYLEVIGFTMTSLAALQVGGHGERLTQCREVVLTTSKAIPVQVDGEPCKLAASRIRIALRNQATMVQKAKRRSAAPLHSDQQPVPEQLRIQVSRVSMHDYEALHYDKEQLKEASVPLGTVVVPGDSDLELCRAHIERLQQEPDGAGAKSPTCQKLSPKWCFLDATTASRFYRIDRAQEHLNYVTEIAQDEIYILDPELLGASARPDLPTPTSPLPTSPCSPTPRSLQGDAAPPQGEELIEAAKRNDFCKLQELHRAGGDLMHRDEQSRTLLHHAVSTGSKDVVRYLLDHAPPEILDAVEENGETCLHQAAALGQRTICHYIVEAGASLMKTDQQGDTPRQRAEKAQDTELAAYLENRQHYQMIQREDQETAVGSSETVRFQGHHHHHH
- Assay explanation: DGKζ assay (detergent/lipid micelle substrate)
- Format: biochemical
- Condition description: detergent/lipid micelle substrate; read-out: DGKζ IC50
pIC50: −log10 of the molar value.
Parameter: pIC50

{"Smiles repr": "Cn1c(=O)c(C#N)c(N2CCN(Cc3cccc4nc[nH]c34)CC2)c2nc(Cl)ccc21", "Target desc": "human DGKζ (Homo sapiens (Human), UniProt Q13574)", "Parameter": "pIC50", "Result": "< 3.62"}
{"Smiles repr": "Cn1c(=O)c(C#N)c(N2CCN(Cc3ccc(Br)cc3O)CC2)c2nc(Cl)ccc21", "Target desc": "human DGKζ (Homo sapiens (Human), UniProt Q13574)", "Parameter": "pIC50", "Result": "< 3.62"}

Consider the additional compound presented here.
Q: Using known records, supply pIC50 for Cn1c(=O)c(C#N)c(N2CCN(Cc3cccc(Br)c3O)CC2)c2nc(Br)ccc21
A: < 3.62

* * *

Overview of reported IC50 across a group of compounds:
- Target desc: UniProtKB P23743
- Sequence (P23743 other isoform, or with tags, fused parts or gaps): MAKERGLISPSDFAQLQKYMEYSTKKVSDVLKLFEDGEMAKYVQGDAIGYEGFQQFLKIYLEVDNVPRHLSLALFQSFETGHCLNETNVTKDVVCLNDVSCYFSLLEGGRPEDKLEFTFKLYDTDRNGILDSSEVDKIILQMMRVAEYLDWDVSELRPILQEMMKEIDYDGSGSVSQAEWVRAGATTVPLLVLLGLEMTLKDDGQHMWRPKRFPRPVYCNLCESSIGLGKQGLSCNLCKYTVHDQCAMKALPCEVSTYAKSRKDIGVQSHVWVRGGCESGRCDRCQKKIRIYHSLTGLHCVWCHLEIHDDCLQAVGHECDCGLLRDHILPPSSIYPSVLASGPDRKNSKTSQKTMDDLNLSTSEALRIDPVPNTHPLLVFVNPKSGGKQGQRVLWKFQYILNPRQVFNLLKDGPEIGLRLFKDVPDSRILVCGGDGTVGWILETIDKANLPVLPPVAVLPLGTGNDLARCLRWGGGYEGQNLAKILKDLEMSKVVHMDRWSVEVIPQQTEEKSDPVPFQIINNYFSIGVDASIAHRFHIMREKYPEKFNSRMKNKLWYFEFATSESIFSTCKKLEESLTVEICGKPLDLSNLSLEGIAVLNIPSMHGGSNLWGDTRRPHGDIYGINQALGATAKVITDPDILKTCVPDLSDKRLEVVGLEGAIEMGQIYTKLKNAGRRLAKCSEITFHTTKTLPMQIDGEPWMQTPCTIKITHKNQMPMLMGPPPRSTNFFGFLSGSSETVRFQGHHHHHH
- Assay explanation: biochemical
- Condition description: detergent/lipid micelle substrate; read-out: DGKα IC50
- Experimental: The DGKα and DGKζ reactions were performed using either extruded liposome (DGKα and DGKζ LIPGLO assays) or detergent/lipid micelle substrate (DGKα and DGKζ assays). […] The compound inhibition studies were carried out as follows: 50 nL droplets of each test compound (top concentration 10 mM with 11 point, 3-fold dilution series for each compound) solubilized in DMSO were transferred to wells of a white 1536 well plate (Corning 3725). […] Luminescence was recorded using an EnVision microplate reader. […]
Hi! Could you send only the number? It should be in µM, unit omitted.

Known results for compounds:
{"Compound": "C#CCn1c(=O)c([N+](=O)[O-])c(N2CCN(C3CCc4ccc(OC)cc43)CC2)c2nc(C#N)ccc21 (centres unmarked)", "Display unit": "µM", "IC50": 32}
{"Compound": "Cn1c(=O)c(C#N)c(N2CCN(Cc3ccc(O)c(C(F)(F)F)c3)CC2)c2nc(Cl)ccc21", "Display unit": "µM", "IC50": 7.1}
{"Compound": "Cn1c(=O)c(C#N)c(N2CCN(C(C)(C)c3ccc(F)cc3)CC2)c2nc(Cl)ccc21", "Display unit": "µM", "IC50": 1.8}

Turning now to a further record.
Q: Tell me IC50 reported for Cn1c(=O)c(C#N)c(N2CCN(Cc3cc(Br)ccc3O)CC2)c2nc(Cl)ccc21
A: 0.3

* * *

- Target desc: human DGKζ (Homo sapiens (Human))
- Assay explanation: DGKζ LIPGLO assay (extruded liposome substrate)
- Format: biochemical
- Condition description: extruded liposome substrate; read-out: DGKζ LIPGLO IC50
Parameter: IC50 (µM)
Answer format: numeric, µM implied, no suffix.

{"Compound": "Cc1cccc(CN2CCN(c3c(C#N)c(=O)n(C)c4ccc(Cl)nc34)CC2)c1F", "Display unit": "µM", "IC50": 9.9}
{"Compound": "Cc1ccc2c(n1)c(N1CCN(C3CCOc4ccccc43)CC1)c(C#N)c(=O)n2C (stereo not drawn)", "Display unit": "µM", "IC50": 7.4}

Shifting focus to the compound that follows.
Q: Please indicate IC50 recorded for Cn1c(=O)c(C#N)c(N2CCN(Cc3ccc(F)cc3)CC2)c2nc(Cl)ccc21
A: 13

* * *

- Target desc: human DGKζ (Homo sapiens (Human))
- Assay explanation: DGKζ LIPGLO assay (extruded liposome substrate)
- Assay type: biochemical
- Condition description: extruded liposome substrate; read-out: DGKζ LIPGLO IC50
Listing: IC50 of selected molecules

Some molecules with known IC50 results, for comparison:
{"Molecule": "Cn1c(=O)c(C#N)c(N2CCN(C(CC(C)(C)C)c3ccc(F)cc3)CC2)c2nc(Cl)ccc21 (single isomer, unassigned) [Example 378]", "Parameter": "IC50", "Result": "> 240 µM"}
{"Molecule": "CCC(c1ccc(F)cc1)N1CCN(c2c(C#N)c(=O)n(C)c3ccc(Br)nc23)CC1 (single isomer, unassigned) [Example 27]", "Parameter": "IC50", "Result": "> 240 µM"}
{"Molecule": "Cn1c(=O)c(C#N)c(N2CCN(C(c3ccc(F)cc3)C3CCC3)CC2)c2nc(Cl)ccc21 (single isomer, unassigned) [Example 383]", "Parameter": "IC50", "Result": "> 2.4 µM"}

Q: Provide IC50 value for the following molecule: Cn1c(=O)cc(N2CCN(C(c3ccc(F)cc3)c3ccc(F)cc3)CC2)c2ncccc21
A: > 240 µM
